The reported numbers originate from PubChem BioAssay (NCI).

Here, each record is paired with measured growth data.
# Tested on: SK-MEL-2 melanoma
# assay_summary: NCI-60 one-dose screen, 48 h (100 = growth as untreated, 0 = no growth, -100 = all killed)
# run_conditions: 10 µM
Compounds without any hit were thinned out: in the full panel of roughly 83,000, 20% have a hit.
Just the number in %, nothing appended.

-- ask Identify measured growth associated with "COCCOCCCl"
-- reply 109

-- ask Identify measured growth associated with "CC(C)(O)C#CC#CC(C)(C)O"
-- reply 103

-- ask Identify measured growth associated with "CCOC(=O)c1cc2cccc(OC)c2oc1=O"
-- reply 74.9

-- ask Identify measured growth associated with C#C[C@H]1CCCCCC1O (stereo partly drawn)
-- reply 101

We next turn to a different compound, shown below.
-- ask Identify measured growth associated with "CC[N+](C)(CC)CCO"
-- reply 109
